system: Enterococcus faecalis; assay: Antibacterial activity against vancomycin-resistant Enterococcus faecalis C474 by agar dilution method; format: functional
measurement_type: MIC (µg/mL)

1) CCOC(=O)CC1=CCN(c2ccc(N3C[C@H](Cn4ccnn4)OC3=O)cc2F)CC1
6.25
2) N#CC1=CCN(c2ccc(N3C[C@H](Cn4cc(F)nn4)OC3=O)cc2F)CC1
50
3) CCOC(=O)C(Cl)=C1CCN(c2ccc(N3C[C@H](Cn4cc(F)nn4)OC3=O)cc2F)CC1
100
4) CC(=O)NC[C@H]1CN(c2ccc(N3CCOCC3)c(F)c2)C(=O)O1
3.12
5) COC(=O)C=C1CCN(c2ccc(N3C[C@H](Cn4ccnn4)OC3=O)cc2F)CC1
3.12
6) CCOC(=O)C(C)=C1CCN(c2ccc(N3C[C@H](Cn4ccnn4)OC3=O)cc2F)CC1
6.25
7) CCOC(=O)C(Cl)=C1CCN(c2ccc(N3C[C@H](Cn4ccnn4)OC3=O)cc2F)CC1
12.5
8) N#CC1(O)CCN(c2ccc(N3C[C@H](Cn4cc(F)nn4)OC3=O)cc2F)CC1
100
9) N#CCC1=CCN(c2ccc(N3C[C@H](Cn4cc(F)nn4)OC3=O)cc2F)CC1
100
10) CCOC(=O)C=C1CCN(c2ccc(N3C[C@H](Cn4cc(F)nn4)OC3=O)cc2F)CC1
100
11) CC(C#N)=C1CCN(c2ccc(N3C[C@H](Cn4cc(F)nn4)OC3=O)cc2F)CC1
100
12) CCOC(=O)C=C1CCN(c2ccc(N3C[C@H](Cn4ccnn4)OC3=O)cc2F)CC1
25
13) N#CC1=CCN(c2ccc(N3C[C@H](Cn4ccnn4)OC3=O)cc2F)CC1
3.12
14) N#CC=C1CCN(c2ccc(N3C[C@H](Cn4ccnn4)OC3=O)cc2F)CC1
3.12
15) CCOC(=O)C(C)=C1CCN(c2ccc(N3C[C@H](Cn4cc(F)nn4)OC3=O)cc2F)CC1
100
16) CC(C#N)=C1CCN(c2ccc(N3C[C@H](Cn4ccnn4)OC3=O)cc2F)CC1
1.56
17) N#CC1(O)CCN(c2ccc(N3C[C@H](Cn4ccnn4)OC3=O)cc2F)CC1
3.12
18) N#CC=C1CCN(c2ccc(N3C[C@H](Cn4cc(F)nn4)OC3=O)cc2F)CC1
50
19) CC(=O)NC[C@H]1CN(c2ccc(N3CCC(=CC#N)CC3)c(F)c2)C(=O)O1
3.12
20) N#CCC1=CCN(c2ccc(N3C[C@H](Cn4ccnn4)OC3=O)cc2F)CC1
3.12

---

molecular target: CYP3A4 (Homo sapiens, UniProt P08684); experiment: Inhibition of CYP3A4 (unknown origin) assessed as residual activity at 10 uM; type: ADME; conditions: read-out: INH
Sequence (P08684 whole entry): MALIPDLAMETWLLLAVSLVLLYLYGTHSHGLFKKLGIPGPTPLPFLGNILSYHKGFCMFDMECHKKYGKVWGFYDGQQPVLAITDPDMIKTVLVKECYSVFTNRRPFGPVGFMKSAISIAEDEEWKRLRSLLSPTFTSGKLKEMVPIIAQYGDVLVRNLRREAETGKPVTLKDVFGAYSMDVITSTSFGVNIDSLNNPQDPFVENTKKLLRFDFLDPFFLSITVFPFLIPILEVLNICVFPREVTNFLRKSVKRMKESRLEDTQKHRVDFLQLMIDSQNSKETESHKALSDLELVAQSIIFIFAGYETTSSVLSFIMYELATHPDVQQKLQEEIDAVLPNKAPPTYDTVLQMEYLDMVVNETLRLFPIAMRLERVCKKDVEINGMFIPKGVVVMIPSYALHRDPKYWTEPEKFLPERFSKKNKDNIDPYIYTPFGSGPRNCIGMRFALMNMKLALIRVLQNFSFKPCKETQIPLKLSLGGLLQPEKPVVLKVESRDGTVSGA
activity at 10 µM overview
measurement_type: activity at 10 µM (%)

1) N#CC=C1CCN(c2ccc(N3C[C@H](Cn4cc(F)nn4)OC3=O)cc2F)CC1
23.6
2) CC(C#N)=C1CCN(c2ccc(N3C[C@H](Cn4cc(F)nn4)OC3=O)cc2F)CC1
21.4
3) CC(C#N)=C1CCN(c2ccc(N3C[C@H](Cn4ccnn4)OC3=O)cc2F)CC1
7.45
4) N#CC=C1CCN(c2ccc(N3C[C@H](Cn4ccnn4)OC3=O)cc2F)CC1
32

---

MIC overview
tested on: Streptococcus pneumoniae; assay: Antibacterial activity against penicillin-resistant Streptococcus pneumoniae C402 by agar dilution method; type: functional
measurement_type: MIC (µg/mL)

1. CCOC(=O)C(Cl)=C1CCN(c2ccc(N3C[C@H](Cn4ccnn4)OC3=O)cc2F)CC1
12.5
2. N#CC=C1CCN(c2ccc(N3C[C@H](Cn4ccnn4)OC3=O)cc2F)CC1
0.39
3. CC(C#N)=C1CCN(c2ccc(N3C[C@H](Cn4cc(F)nn4)OC3=O)cc2F)CC1
6.25
4. CCOC(=O)C(C)=C1CCN(c2ccc(N3C[C@H](Cn4ccnn4)OC3=O)cc2F)CC1
0.78
5. N#CC=C1CCN(c2ccc(N3C[C@H](Cn4cc(F)nn4)OC3=O)cc2F)CC1
6.25

---

system: Staphylococcus aureus; assay: Antibacterial activity against methicillin-resistant Staphylococcus aureus C463 by agar dilution method; type: functional
Please respond with Y when measured MIC is strictly beneath 50 µg/mL, and with N in all other cases.

1) CC(=O)NC[C@H]1CN(c2ccc(N3CCOCC3)c(F)c2)C(=O)O1 [LINEZOLID]
Y
2) N#CC1=CCN(c2ccc(N3C[C@H](Cn4ccnn4)OC3=O)cc2F)CC1
Y
3) CCOC(=O)C=C1CCN(c2ccc(N3C[C@H](Cn4cc(F)nn4)OC3=O)cc2F)CC1
N
4) N#CC1(O)CCN(c2ccc(N3C[C@H](Cn4ccnn4)OC3=O)cc2F)CC1
Y
5) CCOC(=O)C(C)=C1CCN(c2ccc(N3C[C@H](Cn4ccnn4)OC3=O)cc2F)CC1
Y
6) CCOC(=O)C=C1CCN(c2ccc(N3C[C@H](Cn4ccnn4)OC3=O)cc2F)CC1
Y
7) CC(C#N)=C1CCN(c2ccc(N3C[C@H](Cn4cc(F)nn4)OC3=O)cc2F)CC1
N
8) N#CC1=CCN(c2ccc(N3C[C@H](Cn4cc(F)nn4)OC3=O)cc2F)CC1
N
9) N#CCC1=CCN(c2ccc(N3C[C@H](Cn4ccnn4)OC3=O)cc2F)CC1
Y
10) CCOC(=O)C(Cl)=C1CCN(c2ccc(N3C[C@H](Cn4cc(F)nn4)OC3=O)cc2F)CC1
N
11) CCOC(=O)CC1=CCN(c2ccc(N3C[C@H](Cn4ccnn4)OC3=O)cc2F)CC1
Y
12) CC(=O)NC[C@H]1CN(c2ccc(N3CCC(=CC#N)CC3)c(F)c2)C(=O)O1
Y
13) N#CCC1=CCN(c2ccc(N3C[C@H](Cn4cc(F)nn4)OC3=O)cc2F)CC1
N
14) CCOC(=O)C(Cl)=C1CCN(c2ccc(N3C[C@H](Cn4ccnn4)OC3=O)cc2F)CC1
Y
15) N#CC1(O)CCN(c2ccc(N3C[C@H](Cn4cc(F)nn4)OC3=O)cc2F)CC1
N
16) CC(C#N)=C1CCN(c2ccc(N3C[C@H](Cn4ccnn4)OC3=O)cc2F)CC1
Y
17) N#CC=C1CCN(c2ccc(N3C[C@H](Cn4ccnn4)OC3=O)cc2F)CC1
Y
18) CCOC(=O)C(C)=C1CCN(c2ccc(N3C[C@H](Cn4cc(F)nn4)OC3=O)cc2F)CC1
N
19) COC(=O)C=C1CCN(c2ccc(N3C[C@H](Cn4ccnn4)OC3=O)cc2F)CC1
Y

---

MIC overview
tested on: Haemophilus influenzae; assay: Antibacterial activity against betalactamase positive Haemophilus influenzae by agar dilution method; assay type: functional
measurement_type: MIC (µg/mL)

1. N#CC1=CCN(c2ccc(N3C[C@H](Cn4ccnn4)OC3=O)cc2F)CC1
1.56
2. N#CCC1=CCN(c2ccc(N3C[C@H](Cn4cc(F)nn4)OC3=O)cc2F)CC1
12.5
3. N#CC1(O)CCN(c2ccc(N3C[C@H](Cn4cc(F)nn4)OC3=O)cc2F)CC1
6.25
4. N#CC1(O)CCN(c2ccc(N3C[C@H](Cn4ccnn4)OC3=O)cc2F)CC1
1.56
5. CCOC(=O)C=C1CCN(c2ccc(N3C[C@H](Cn4ccnn4)OC3=O)cc2F)CC1
12.5
6. N#CC=C1CCN(c2ccc(N3C[C@H](Cn4ccnn4)OC3=O)cc2F)CC1
0.78
7. CCOC(=O)C=C1CCN(c2ccc(N3C[C@H](Cn4cc(F)nn4)OC3=O)cc2F)CC1
6.25
8. CC(=O)NC[C@H]1CN(c2ccc(N3CCOCC3)c(F)c2)C(=O)O1
0.78
9. CC(=O)NC[C@H]1CN(c2ccc(N3CCC(=CC#N)CC3)c(F)c2)C(=O)O1
0.78
10. CC(C#N)=C1CCN(c2ccc(N3C[C@H](Cn4ccnn4)OC3=O)cc2F)CC1
0.39

---

MIC overview
system: Haemophilus influenzae; assay: Antibacterial activity against betalactamase positive Haemophilus influenzae by agar dilution method; assay type: functional
measurement_type: MIC (µg/mL)

1. CCOC(=O)C(Cl)=C1CCN(c2ccc(N3C[C@H](Cn4ccnn4)OC3=O)cc2F)CC1
6.25
2. CCOC(=O)C(C)=C1CCN(c2ccc(N3C[C@H](Cn4ccnn4)OC3=O)cc2F)CC1
1.56
3. CCOC(=O)C(Cl)=C1CCN(c2ccc(N3C[C@H](Cn4cc(F)nn4)OC3=O)cc2F)CC1
50
4. N#CCC1=CCN(c2ccc(N3C[C@H](Cn4ccnn4)OC3=O)cc2F)CC1
1.56
5. COC(=O)C=C1CCN(c2ccc(N3C[C@H](Cn4ccnn4)OC3=O)cc2F)CC1
1.56

---

test system: Haemophilus influenzae; experiment: Antibacterial activity against betalactamase positive Haemophilus influenzae by agar dilution method; type: functional
measurement_type: MIC

1. N#CC1=CCN(c2ccc(N3C[C@H](Cn4cc(F)nn4)OC3=O)cc2F)CC1
6.26 µg/mL
2. CCOC(=O)C(C)=C1CCN(c2ccc(N3C[C@H](Cn4cc(F)nn4)OC3=O)cc2F)CC1
100 µg/mL
3. N#CC=C1CCN(c2ccc(N3C[C@H](Cn4cc(F)nn4)OC3=O)cc2F)CC1
6.25 µg/mL
4. CCOC(=O)CC1=CCN(c2ccc(N3C[C@H](Cn4ccnn4)OC3=O)cc2F)CC1
3.12 µg/mL
5. CC(C#N)=C1CCN(c2ccc(N3C[C@H](Cn4cc(F)nn4)OC3=O)cc2F)CC1
6.25 µg/mL
